- Tested on: Vero E6 infected with SARS-CoV-2
- Protocol Notes: SARS-CoV-2 infection rate relative to infected DMSO; higher = more infection, active = 60 or less
- Stated Conditions: 24 h
SARS-CoV-2 infection rate overview
Experimental Readout: SARS-CoV-2 infection rate (%)

>>> print(df.to_string())
                                   molecule                               tgt  value_units  recorded_number
0  CCOP(=S)(OCC)Oc1cc(C)nc(C(C)C)n1 [dimpylate] (10 µM)  Vero E6 infected with SARS-CoV-2            %              116
1  Cc1c(F)cc(C(=O)NC2CC2)cc1-c1c(F)cn2c(C(C)(C)C)nnc2c1F (10 µM)  Vero E6 infected with SARS-CoV-2            %              108
2  COC(=O)c1cnn(-c2ccc(F)cc2F)c1/C=N/NC(=S)NC(C)(C)C (10 µM)  Vero E6 infected with SARS-CoV-2            %               74
3  COc1ccc2[nH]c([S@@+]([O-])Cc3ncc(C)c(OC)c3C)nc2c1 [esomeprazole] (10 µM)  Vero E6 infected with SARS-CoV-2            %              110
4  C=C1c2cccc(O)c2C(=O)C2=C(O)[C@]3(O)C(=O)C(C(N)=O)=C(O)[C@@H](N(C)C)[C@@H]3[C@@H](O)[C@H]12 [methacycline] (0.833333 µM)  Vero E6 infected with SARS-CoV-2            %              103
5      NC(=O)CN1CCCC1=O [piracetam] (10 µM)  Vero E6 infected with SARS-CoV-2            %             96.5
6  NC(=O)c1noc([C@H](CCCC2CCCCC2)CC(=O)NO)n1 (10 µM)  Vero E6 infected with SARS-CoV-2            %               85
7  Cc1c(C(=O)NC2CCCCC2)sc2nc3ccc(N)cc3n12 (10 µM)  Vero E6 infected with SARS-CoV-2            %              105
8  Cc1ccc(NC(=O)CCCCCC(=O)Nc2ccccc2N)cc1 (0.833333 µM)  Vero E6 infected with SARS-CoV-2            %              103

====

- System: Vero E6 infected with SARS-CoV-2
- Protocol Notes: morphology score (similarity to uninfected cells); higher = more like uninfected cells
- Stated Conditions: 24 h

Molecule	morphology score
Cc1c2oc3c(C)ccc(C(=O)N[C@@H]4C(=O)N[C@H](C(C)C)C(=O)N5CCC[C@H]5C(=O)N(C)CC(=O)N(C)[C@@H](C(C)C)C(=O)O[C@@H]4C)c3nc-2c(C(=O)N[C@@H]2C(=O)N[C@H](C(C)C)C(=O)N3CCC[C@H]3C(=O)N(C)CC(=O)N(C)[C@@H](C(C)C)C(=O)O[C@@H]2C)c(N)c1=O [dactinomycin] (10 µM)	-0.16
C[C@]12Cc3c[nH]nc3C[C@@H]1CC[C@@H]1[C@@H]2CC[C@@]2(C)[C@H]1CC[C@]2(C)O [stanozolol] (10 µM)	-0.305
Oc1cccc(O)c1 [resorcinol] (10 µM)	0.0503
CC1(CN2CCC(n3c(=O)[nH]c4ccccc43)CC2)OCc2ccccc2-n2cccc21 (stereo unspecified) [zaldaride] (10 µM)	-0.152
O=C1NC(=O)c2cc(Nc3ccc(F)cc3)c(Nc3ccc(F)cc3)cc21 (10 µM)	0.329
OC[C@H]1OC(O)[C@H](O)[C@@H](O)[C@@H]1O (stereo partly specified) [dextrose] (10 µM)	-0.00495
